All values here come from the NIST ThermoML archive (doi:10.1021/je0255980).

- ASSAY_SETUP: 301.2 K; Liquid
OBSERVABLE: vapor or sublimation pressure (kPa)
Report the value in kPa with no unit label.

Example compounds with recorded vapor or sublimation pressure:
CCCCOC(C)(C)CC [butyl 1,1-dimethylpropyl ether] : 0.7443
CCOC(C)(C)CC(C)(C)C [ethyl 1,1,3,3-tetramethylbutyl ether] : 0.6018
COC(C)(C)CC(C)(C)C [methyl 1,1,3,3-tetramethylbutyl ether] : 0.8887

Sure, the documented vapor or sublimation pressure for CCCOC(C)(C)CC(C)(C)C [pentane, 2-propoxy-2,4,4-trimethyl-] is 0.2557

###

Readings of vapor or sublimation pressure for the listed compounds
- ASSAY_SETUP: 280.2 K; Liquid
± gives the expanded uncertainty stated by the source.

CCC(C)(C)OC : 3.8 ± 0.3 kPa
CCCOC(C)(C)CC : 0.6121 ± 0.048 kPa
CCOC(C)(C)CC : 2.055 ± 0.16 kPa

Sure, the documented vapor or sublimation pressure for CCCOC(C)(C)CC(C)(C)C is 0.058 ± 0.0045 kPa
